The entries below are paired with their reported pIC50.
Biological target: NEDD8 activating enzyme (Homo sapiens, UniProt Q8TBC4)
Sequence (Q8TBC4 whole entry): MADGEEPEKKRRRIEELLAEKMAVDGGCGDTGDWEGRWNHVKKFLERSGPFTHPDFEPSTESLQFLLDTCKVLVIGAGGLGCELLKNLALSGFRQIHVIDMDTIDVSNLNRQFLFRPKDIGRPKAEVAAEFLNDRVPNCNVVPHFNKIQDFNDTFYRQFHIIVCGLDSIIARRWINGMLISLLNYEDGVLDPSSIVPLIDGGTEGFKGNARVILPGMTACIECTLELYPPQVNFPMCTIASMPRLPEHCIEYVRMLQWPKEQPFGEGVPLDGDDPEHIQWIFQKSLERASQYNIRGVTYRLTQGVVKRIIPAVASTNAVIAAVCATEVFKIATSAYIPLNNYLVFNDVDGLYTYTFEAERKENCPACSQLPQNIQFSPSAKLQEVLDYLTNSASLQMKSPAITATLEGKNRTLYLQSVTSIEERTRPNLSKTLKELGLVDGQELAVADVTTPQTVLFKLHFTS
Sequence (Q13564 whole entry, further chain): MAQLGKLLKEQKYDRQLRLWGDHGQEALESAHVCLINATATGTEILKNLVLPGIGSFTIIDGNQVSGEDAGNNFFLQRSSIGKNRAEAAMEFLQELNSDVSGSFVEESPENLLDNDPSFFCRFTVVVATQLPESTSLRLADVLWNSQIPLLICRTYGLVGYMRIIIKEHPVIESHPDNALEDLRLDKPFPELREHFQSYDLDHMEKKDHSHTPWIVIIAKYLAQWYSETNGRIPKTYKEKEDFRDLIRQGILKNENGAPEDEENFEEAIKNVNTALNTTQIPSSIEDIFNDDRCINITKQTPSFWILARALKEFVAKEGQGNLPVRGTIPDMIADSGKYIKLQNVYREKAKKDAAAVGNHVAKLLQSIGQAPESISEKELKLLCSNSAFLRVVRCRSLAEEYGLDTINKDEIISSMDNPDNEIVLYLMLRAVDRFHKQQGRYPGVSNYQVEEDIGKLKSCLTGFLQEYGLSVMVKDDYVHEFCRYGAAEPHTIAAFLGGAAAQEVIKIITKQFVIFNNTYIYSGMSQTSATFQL
Experiment: Inhibition of recombinant human NAEalpha/N-terminal His-tagged NAEbeta expressed in baculovirus infected insect Sf9 cells using N-terminal FLAG tagged Nedd8 as substrate incubated for 105 mins in presence of N-terminal GST-tagged Ubc12 by FRET assay
pIC50: −log10 of the molar value.

entry-smiles	pIC50
NS(=O)(=O)OC[C@H]1C[C@@H](Nc2cc(CCc3ccccc3)ncn2)[C@H](O)[C@@H]1O	5.00 to 6.30
COc1ccc2c(c1)[C@H](Nc1cc(O[C@@H]3C[C@@H](COS(N)(=O)=O)[C@@H](O)C3)ncn1)[C@H](OC)CC2	5.00 to 6.30
NS(=O)(=O)OC[C@@H]1C[C@@H](Oc2ncnc3nc(-c4c[nH]c5ccccc45)[nH]c23)C[C@@H]1O	≥ 6.30
CO[C@@H]1c2ccccc2C[C@@H]1Oc1cc(O[C@@H]2C[C@@H](COS(N)(=O)=O)[C@@H](O)C2)ncn1	5.00 to 6.30
NS(=O)(=O)OC[C@@H]1C[C@@H](Nc2ncnc3[nH]c(-c4ccccc4)cc23)C[C@@H]1O	≥ 6.30

Tested on NEDD8 activating enzyme (Homo sapiens, UniProt Q8TBC4): CN(Cc1ccccc1)c1cc(N[C@@H]2C[C@H](COS(N)(=O)=O)[C@@H](O)[C@H]2O)ncn1 . Observed pIC50: < 5.00

pIC50 of NS(=O)(=O)OC[C@H]1C[C@@H](O)[C@H](Nc2cc(N[C@H]3CCc4ccccc43)ncn2)C1 , assay on NEDD8 activating enzyme (Homo sapiens, UniProt Q8TBC4), is < 5.00

Bench note, NEDD8 activating enzyme (Homo sapiens, UniProt Q8TBC4): NS(=O)(=O)OC[C@H]1C[C@@H](Nc2cc(N[C@H]3CCc4ccccc43)ncn2)C[C@@H]1O , pIC50 reads ≥ 6.30
